test: melting temperature; fluorescence melt of hairpins on a sequencing array, two-state fit, raised by 9.35 °C to match UV melts; conditions: sodium 0.088 M
// returns FALSE unless Tm is strictly below 40 °C, in which case TRUE

{"Sequence Text": "GCCATCGGAAACGGTGGC ((((.((....)).))))", "Class Assignment": "FALSE"}
{"Sequence Text": "GATCTGGGATCAGATC ((((((....))))))", "Class Assignment": "FALSE"}
{"Sequence Text": "GTTTTCCGAAAGGATAAC (((.(((....))).)))", "Class Assignment": "FALSE"}
{"Sequence Text": "GCCGCAGGAAACTACGGC ((((.((....)).))))", "Class Assignment": "FALSE"}
{"Sequence Text": "GCAGTGCGAAAGCGCGGC ((.(.((....)).).))", "Class Assignment": "FALSE"}
{"Sequence Text": "GGTCTCCGAAAGGAAACC (((.(((....))).)))", "Class Assignment": "FALSE"}
{"Sequence Text": "GCGAGGCGAAAGCTTGGC ((.(.((....)).).))", "Class Assignment": "FALSE"}
{"Sequence Text": "GGAAAAGAAATTTTCC ((((((....))))))", "Class Assignment": "TRUE"}
{"Sequence Text": "GAGTACGGAAACGTGTTC ((..(((....)))..))", "Class Assignment": "TRUE"}
{"Sequence Text": "GTGTACGAAAGTAGTCAC ((((((....)))..)))", "Class Assignment": "TRUE"}
{"Sequence Text": "GACACCGAAAGGTTTGTC ((((((....)))..)))", "Class Assignment": "TRUE"}
{"Sequence Text": "GATCTAATATTAGATC ((((((....))))))", "Class Assignment": "FALSE"}
{"Sequence Text": "GATCTATAATAGATC ((((((...))))))", "Class Assignment": "TRUE"}
{"Sequence Text": "GCGTAAAAACGC ((((....))))", "Class Assignment": "FALSE"}
{"Sequence Text": "GGCGATCGAAAGATGCC (((.(((....))))))", "Class Assignment": "FALSE"}
{"Sequence Text": "GATTCTGGAAACGGAATC (((((.(....).)))))", "Class Assignment": "FALSE"}
{"Sequence Text": "GCTATGGGAAACCGTAGC ((((.((....)).))))", "Class Assignment": "FALSE"}
{"Sequence Text": "GGTGCAGGAAACCGCACC (((((.(....).)))))", "Class Assignment": "FALSE"}
{"Sequence Text": "GCGAGGCGAAAGCAGCGC (((..((....))..)))", "Class Assignment": "FALSE"}
{"Sequence Text": "GAAGTCGGAAACGATTTC (((.(((....))).)))", "Class Assignment": "FALSE"}
{"Sequence Text": "GATCTGGCTTCAGATC ((((((....))))))", "Class Assignment": "FALSE"}
{"Sequence Text": "GCCCCACGAAAGTGCGGC (((.(((....))).)))", "Class Assignment": "FALSE"}
{"Sequence Text": "GCCACGCGAAAGCCTCGC ((.(.((....)).).))", "Class Assignment": "TRUE"}
{"Sequence Text": "GATCTATCGTAGATC ((((((...))))))", "Class Assignment": "TRUE"}
{"Sequence Text": "GATCCTGACTAGGATC ((((((....))))))", "Class Assignment": "FALSE"}
{"Sequence Text": "GGACATACGAAAGTATCC (((..(((....))))))", "Class Assignment": "TRUE"}
{"Sequence Text": "GATATGCGAAAGCAATC (((.(((....))))))", "Class Assignment": "TRUE"}
{"Sequence Text": "GCACTAACGAAAGTTTGC (((..(((....))))))", "Class Assignment": "TRUE"}
{"Sequence Text": "GTTTTACGAAAGTAGAAC (((.(((....))).)))", "Class Assignment": "FALSE"}
{"Sequence Text": "GTTGCCGAAAGGCCGAAC ((((((....)))..)))", "Class Assignment": "TRUE"}
{"Sequence Text": "GGTAGCGAAAGCTTGACC ((((((....)))..)))", "Class Assignment": "TRUE"}
{"Sequence Text": "GTGTGCGAAAGCACGCAC ((((((....)))..)))", "Class Assignment": "FALSE"}
{"Sequence Text": "GCAGGGCGAAAGCCCAGC ((.((((....)))).))", "Class Assignment": "FALSE"}
{"Sequence Text": "GTAAAAGCGAAAGCTTAC (((..(((....))))))", "Class Assignment": "TRUE"}
{"Sequence Text": "GCCCAGCGAAAGCTCAGC ((..(((....)))..))", "Class Assignment": "TRUE"}
{"Sequence Text": "GGCTAAGGAAACTTAGTC (.(((((....))))).)", "Class Assignment": "FALSE"}
{"Sequence Text": "GGTGGCGAAAGCCGACC ((((((....))).)))", "Class Assignment": "FALSE"}
{"Sequence Text": "GACCCCGAAAGGGGAGTC ((((((....)))..)))", "Class Assignment": "FALSE"}
{"Sequence Text": "GCATTCGGAAACGAATAC (.(((((....))))).)", "Class Assignment": "TRUE"}
{"Sequence Text": "GCAAACGAAAGTTGTGC ((((((....))).)))", "Class Assignment": "FALSE"}
{"Sequence Text": "GTAATGGGAAACCGTTAC ((((.((....)).))))", "Class Assignment": "FALSE"}
{"Sequence Text": "GCGCCCGAAAGGGAACGC ((((((....)))..)))", "Class Assignment": "FALSE"}
{"Sequence Text": "GATCCCCCTTGGGATC ((((((....))))))", "Class Assignment": "FALSE"}
{"Sequence Text": "GTTGGGAAACCAAC (((((....)))))", "Class Assignment": "FALSE"}
{"Sequence Text": "GAAGAACGAAAGTTTTTC (((.(((....))).)))", "Class Assignment": "TRUE"}
{"Sequence Text": "GGGACCGGAAACAGTCCC (((((.(....).)))))", "Class Assignment": "FALSE"}
{"Sequence Text": "GCCCCGCGAAAGCTGAGC ((.(.((....)).).))", "Class Assignment": "TRUE"}
